# protocolNotes: Three-part study (Parts C, D, E) of Compound 1-A: overall safety/tolerability and pharmacokinetics
# Format: in vivo, human
# measurementParameters: human, in vivo, 600 mg/d, AUC SS (AUCinf for Compound 1), Part D, 600 mg/d (n=6), steady state
parameterMeasured: AUC(0-inf) (ng·h/mL)
I only need the number, in ng·h/mL, no unit after it.

-- ask AUC(0-inf) lookup needed for CNc1nc(N)nc2c1ncn2[C@@H]1O[C@H](CO[P@@](=O)(N[C@@H](C)C(=O)OC(C)C)Oc2ccccc2)[C@@H](O)[C@@]1(C)F , thanks.
-- reply 3750

----------
# protocolNotes: Three-part study (Parts C, D, E) of Compound 1-A: overall safety/tolerability and pharmacokinetics
# Type: in vivo, human
# measurementParameters: human, in vivo, 600 mg/d, AUC SS (AUCinf for Compound 1), Part C, 600 mg/d (n=6), steady state
parameterMeasured: AUC(0-inf) (ng·h/mL)
Give the number; ng·h/mL is assumed, so skip it.

-- ask Endpoint output: AUC(0-inf) of CNc1nc(N)nc2c1ncn2[C@@H]1O[C@H](CO[P@@](=O)(N[C@@H](C)C(=O)OC(C)C)Oc2ccccc2)[C@@H](O)[C@@]1(C)F . Value?
-- reply 4040

Sourced from patent US20260091050A1
